Tested on: SNB-75
Assay: NCI tumour cell line growth inhibition, 48 h
Active and inactive are the calls of the source. Cut-off read from the data, not from the text of the source: active = GI50 up to about 1.1 µM and inactive = higher.
experimental endpoint: GI50

> print(dat)
                                   molecule  experimental.endpoint               result
1  N#CC1(C#N)NC(c2ccsc2)C(C#N)(C#N)NC1c1ccsc1 (stereo not drawn)                   GI50  > 100 µM (inactive)
2  CC1CC/C(=C\c2ccc(Cl)cc2)c2nc(N)c(C#N)c(-c3ccc(Cl)cc3)c21 (stereo not drawn)                   GI50     67 µM (inactive)
3  C/C=C/[C@@H]1[C@H]2C(=O)[C@]3(Cl)[C@@H](/C=C/C)[C@@H]3C(=O)[C@@]12Cl                   GI50   53.3 µM (inactive)

###

System: OVCAR-3
Experiment: NCI tumour cell line growth inhibition, 48 h
Active and inactive are the calls of the source. Cut-off read from the data, not from the text of the source: active = GI50 up to about 1.1 µM and inactive = higher.
experimental endpoint: GI50

> print(dat)
                                    molecule  tested.target               result
 1   COc1cc2nc(-c3cccc(N(C)C)c3)cc(O)c2cc1OC        OVCAR-3   1.52 µM (inactive)
 2  C=CC/N=C1\N=C(C)C(C(=O)OCC)S1 (stereo unspecified)        OVCAR-3  > 100 µM (inactive)
 3  COc1ccc(C(=O)CC(c2ccc(OC)c(OC)c2)c2c(O)oc3ccccc3c2=O)cc1OC (stereo unspecified)        OVCAR-3  > 100 µM (inactive)
 4  CC(=O)C1=NN(c2ccccc2)C2(S1)SC(c1ccccc1)(c1ccccc1)c1ccccc12 (stereo unspecified)        OVCAR-3   51.3 µM (inactive)
 5  CC1(C)CCCC2(C)[C@@H]1CC[C@]13C[C@](C)(CC[C@@H]21)[C@@H]3CO (stereo partly specified)        OVCAR-3  > 100 µM (inactive)
 6  O=C1c2c(nc3ccccc3c2-c2ccccc2)CN1Nc1ccccn1        OVCAR-3     75 µM (inactive)
 7       [N-]=[N+]=NC1=CC(=O)c2cccc3cccc1c23        OVCAR-3   31.7 µM (inactive)
 8  Clc1ccc(OCc2nnc3n2N=C(c2ccccc2)CS3)c(Cl)c1        OVCAR-3   > 10 µM (inactive)
 9  CCCCCCCC/C=C/CCCCCCCC1CC(O)C(=O)O1 (stereo unspecified)        OVCAR-3   27.9 µM (inactive)
10  O=C1c2ccccc2C(=O)N1[C@@H](Cc1ccccc1)C(=O)n1cccc1CO        OVCAR-3  > 100 µM (inactive)
11               Cc1ccc(C(N)=O)cc1/N=N/N(C)C        OVCAR-3  > 100 µM (inactive)

###

Tested on: SF-268
Assay: NCI tumour cell line growth inhibition, 48 h
Calls of active or inactive are those of the source. Rule as the data show it: active = GI50 up to about 1.1 µM and inactive = higher.
GI50 reference
experimental endpoint: GI50

mol smiles	experimental endpoint	result
Nc1ccc(O)c2c1C(=O)c1c(N)ccc(O)c1C2=O	GI50	> 100 µM (inactive)
O=C1CCCc2ccc3c(c21)CC1(Cc2cc4c(cc2C1)CCCC4)C3	GI50	29 µM (inactive)
O=C1/C(=C/c2ccc(Cl)cc2)COc2ccc(Br)cc21	GI50	> 100 µM (inactive)
COC(=O)c1cn(CCCCO)nn1	GI50	> 100 µM (inactive)
O=C(NCCCCNCCCNC(=O)c1cc(-c2ccccc2)nc2ccccc12)c1cc(-c2ccccc2)nc2ccccc12	GI50	2.03 µM (inactive)
CCOC(=O)c1ccc(Nc2nc3ccccc3nc2-c2cccs2)cc1	GI50	93.5 µM (inactive)
C=C(C(=O)OC)[C@H]1CC/C(C)=C/CC[C@@](C)(O)C=CC[C@@]2(C)O[C@@H]2C1	GI50	19.6 µM (inactive)
O=C1N=C(SC(SC2=NC(=O)C3(NN2)c2ccccc2-c2ccccc23)=C(SC2=NC(=O)C3(NN2)c2ccccc2-c2ccccc23)SC2=NC(=O)C3(NN2)c2ccccc2-c2ccccc23)NNC12c1ccccc1-c1ccccc12	GI50	> 10 µM (inactive)
N=C(N)N/N=C/c1c(-c2ccccc2)nc2ccn3c(/C=N/N=C(N)N)c(-c4ccccc4)nc3n12	GI50	> 100 µM (inactive)

###

System: HCC 2998
Assay: NCI tumour cell line growth inhibition, 48 h
Active and inactive are the calls of the source. Rule as the data show it: active = GI50 up to about 1.1 µM and inactive = higher.
Outcomes: TRUE for active, FALSE for inactive

compound	category
O=C1CC2(CCNCC2)C(=O)N1N1CCCC1	FALSE
C[Si]1(C)C(c2ccccc2)=CC2C(c3ccccc3)(c3ccccc3)OC21c1ccccc1 (centres undefined)	FALSE
CC1=CC[C@@H]2[C@@H](CC[C@@]2(C)O)C(C)(C)[C@H]1CC[C@@H]1[C@@]2(C)CCC(=O)C(C)(C)O[C@@H]2CC[C@]1(C)O	FALSE
Cc1ccc(NC(=O)CC/C(CC(=O)c2ccc(F)cc2)=N\NC(=O)C(=O)NN)cc1C	FALSE
CC(C)(c1ccc(Oc2ccc(C#N)c(C#N)c2)cc1)c1ccc(Oc2ccc(C#N)c(C#N)c2)cc1	FALSE
Cc1nnc2c3nnc(C)n3c3ccccc3n12	FALSE
COC12C=CC(CC1)c1c(O)ccc(O)c12 (centres undefined)	FALSE
c1ccc2c(c1)[nH]c1nc3cc(-c4ccc5nc6c(nc5c4)[nH]c4ccccc46)ccc3nc12	FALSE
CCCC(=O)Nc1cc(/C=C/C(=O)N2CC(CCl)c3ccc([N+](=O)[O-])cc32)n(C)c1 (centres undefined)	FALSE
CC1(C)CC(/C=C2/OC(=O)c3ccccc32)=C(C#N)C(=O)O1	TRUE
O=[N+]([O-])c1ccc(-n2nc3ccc4nonc4c3n2)cc1	FALSE
COc1cc(C2S/C(=C/c3ccccc3)C(=O)N2Cc2ccccc2)cc(OC)c1OC (centres undefined)	FALSE
Cn1c2cc(Cl)ccc2c2ccc3c(c21)C(=O)C=CC3=O	FALSE
CC1=CC(=O)/C(=C/NC(=S)Nc2ccccc2)C(=O)O1	FALSE
CC1CC(C#N)=C2NCCN2C1=O (centres undefined)	FALSE
CC(C)C1CNC2N1C(=O)C2(C)OCc1ccccc1 (centres undefined)	FALSE
COc1cc(CNC(=O)CCCCCCCCCCSSCCCCCCCCCCC(=O)NCc2ccc(O)c(OC)c2)ccc1O	FALSE
Cc1n[nH]c(=O)n1/N=C/c1ccco1	FALSE
CCCn1c(CN(Cc2nc3ccccc3n2CCC)Cc2nc3ccccc3n2CCC)nc2ccccc21	FALSE
COc1ccc(-c2c3c(cc4cc5c(cc24)OCO5)C(=O)OC3)cc1OC	FALSE
O=C1/C(=C/c2ccccc2)CCC/C1=C\c1ccc(O)c(CN2CCCCC2)c1	FALSE
COc1cccc(N/C(C)=C2/CCOC2=O)c1	FALSE
C/C(=N\NC(=S)N1CC2CCC(CC2)C1)c1nccs1	TRUE
COc1cc([C@@H]2c3cc4c(cc3[C@@H](NC(=O)c3cccc(C#N)c3)C3COC(=O)[C@@H]32)OCO4)cc(OC)c1O (some centres undefined)	FALSE
CCOC(=O)COc1ccc(OCC(=O)OCC)c2c1C(=O)CCCC2=O	FALSE
O=C1C=C[C@@H](COC2OC(CO)C(O)C(O)C2O)O1 (some centres undefined)	FALSE
Brc1ccc(C[P+]2(c3ccccc3)CCCCC2)cc1.[O-][Cl+3]([O-])([O-])[O-]	FALSE
O=c1c2c(sc3ccccc13)NCN(CCc1ccccc1)C2	FALSE
COc1ccc(N2C(=O)C3c4[nH]c5ccccc5c4C4CC(C)(C)CC(C)(C)C4C3C2=O)cc1 (centres undefined)	FALSE
NC(=O)NCCCC(NC(=O)OCCCCCn1ccc(=O)[nH]c1=O)C(=O)O (centres undefined)	FALSE
CCCSc1ccc2[nH]c(N3C(=O)/C(=C/c4cc(OC)c(OC)c(OC)c4)N=C3c3ccccc3)cc2c1	FALSE
O=C(CC(=O)N1N=C(N2CCCCC2)CC1c1ccccc1)Nc1ccccc1 (centres undefined)	FALSE
[O-][Cl+3]([O-])([O-])[O-].c1ccc(-c2[o+]c(-c3ccccc3)c(-c3ccccc3)c(-c3ccccc3)c2-c2ccccc2)cc1	FALSE
Cc1sc(Cc2ccccc2)nc1-c1ccc(N)cc1	FALSE
CC1CC(=O)C(CC(=O)O)[C@H]1C(C(=O)C(=O)Nc1cc(Cl)ccc1Cl)[N+](=O)[O-] (some centres undefined)	FALSE
C=CC/N=C1\N=C(C)C(C(=O)OCC)S1 (centres undefined)	FALSE
CCOC(=O)O/N=C1/C(=C2/C(=O)Nc3ccccc32)Nc2ccccc21	FALSE
Cc1nc(C(N)=S)sc1C(=O)CC(=O)C(=O)Nc1cccc(Cl)c1C	FALSE
CC(=O)OC[C@@]12C[C@H]3C(=O)C(C)(C)C[C@H]3[C@]1(C)[C@@H](OC(C)=O)[C@]1(O)[C@H]([C@@H](OC(=O)c3ccccc3)[C@@H](C)[C@H]1OC(C)=O)[C@H]2OC(C)=O	FALSE
